Assayed target: Rat CB1 (Rattus norvegicus)
Construct: expressed in transfected cells; host or cells: HEK
Sequence (P20272 whole entry): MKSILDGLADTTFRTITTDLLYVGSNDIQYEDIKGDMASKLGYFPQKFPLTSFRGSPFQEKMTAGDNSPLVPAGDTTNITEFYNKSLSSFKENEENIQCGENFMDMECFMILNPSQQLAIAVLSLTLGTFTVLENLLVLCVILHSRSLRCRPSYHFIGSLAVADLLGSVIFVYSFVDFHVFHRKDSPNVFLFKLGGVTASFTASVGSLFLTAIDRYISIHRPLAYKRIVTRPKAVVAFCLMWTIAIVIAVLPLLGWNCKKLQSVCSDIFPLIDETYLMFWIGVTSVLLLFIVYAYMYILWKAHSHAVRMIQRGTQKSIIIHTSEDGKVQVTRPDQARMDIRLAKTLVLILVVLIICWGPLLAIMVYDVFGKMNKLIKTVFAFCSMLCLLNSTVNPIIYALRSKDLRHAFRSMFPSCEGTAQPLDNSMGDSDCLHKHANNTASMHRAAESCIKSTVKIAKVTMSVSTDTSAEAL
Procedure text: rat CB1 cyclase functional assay (HitHunter cAMP)
Assay type: cell-based
Study conditions: HEK cells, forskolin 37 μM; read-out: Rat CB1 cyclase (EC50)
pEC50: −log10 of the molar value.
Endpoint name: pEC50

Query smiles: Cn1c(C(C)(C)C)c/c(=N\C(=O)c2cc(C(F)(F)F)ccc2OCC(C)(C)C(=O)O)n1C[C@H]1CCCO1
pEC50: < 4.57
--
Query smiles: Cn1c(C(C)(C)C)c/c(=N\C(=O)c2cc(C(F)(F)F)ccc2OC[C@@H]2C=CCO2)n1C[C@H]1CCCO1
pEC50: 6.27

Tell me reported pEC50 for `Cn1c(C(C)(C)C)c/c(=N\C(=O)c2cc(C(F)(F)F)ccc2OC[C@@H]2CCC(C)(C)O2)n1C[C@H]1CCCO1` , tested with Rat CB1 (Rattus norvegicus).
< 4.57

And then `C[C@@H](O)COc1ccc(C(F)(F)F)cc1C(=O)/N=c1\cc(C(C)(C)C)n(C)n1C[C@H]1CCCO1` , what is it?
< 4.57

And then `Cn1c(C(C)(C)C)c/c(=N\C(=O)c2cc(C#N)ccc2OCC(C)(C)O)n1CC1CCC1` , what is it?
< 4.57

And then `CCCCn1cc(C(C)(C)C)o/c1=N\C(=O)c1cc(C(F)(F)F)ccc1OC[C@@H]1CCCN1C` , what is it?
5.69

And then `Cn1c(C(C)(C)C)c/c(=N\C(=O)c2cc(C(F)(F)F)ccc2OC[C@@H]2CCC(=O)N2)n1CC1CCC1` , what is it?
< 4.57
